B1: MLH1 (parent)
chain: YNIATRRKALKNPSEEYGKILEVV

- Variants of: B1
- measurement_notes: protein stability index of a GFP-peptide fusion (GPS, HEK-293T) (PSI 1-6); higher = more stable;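 further: lentivirally expressed fusions sorted by FACS into six bins by GFP to DsRed ratio, PSI derived from sequencing read proportions per bin multiplied by bin number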
- run_parameters: c terminus: a fixed tail appended
Known protein stability index of a selection of variants
Format: numeric value only, no unit, no commentary.

Examples from the recorded data:
> print(dat)
                               seq                parameter  meas.value
1   YNICTRRKALKNPSEEYGKILEVV [A4C]  protein stability index        3.31
2   YNIATRRKDLKNPSEEYGKILEVV [A9D]  protein stability index         3.2
3   YHIATRRKALKNPSEEYGKILEVV [N2H]  protein stability index        2.07
4  YNIATRRKALKNPSEEYGKILMVV [E22M]  protein stability index        2.09
5   SNIATRRKALKNPSEEYGKILEVV [Y1S]  protein stability index        3.29

Identify measured protein stability index associated with YYIATRRKALKNPSEEYGKILEVV [N2Y]
2.43

Name the recorded protein stability index of the item QNIATRRKALKNPSEEYGKILEVV [Y1Q] in your answer.
3.6

Kindly indicate its recorded protein stability index. Item: YNIETRRKALKNPSEEYGKILEVV [A4E]
3

Give the reported protein stability index for this variant. YNIATRRKALKNPSEVYGKILEVV [E16V]
2.49

Return value of protein stability index for input YNIATRRKALKNPSDEYGKILEVV [E15D] , no commentary.
2.7

Look up protein stability index of YNIATRRKALKNPSKEYGKILEVV [E15K] and report it.
2.06

Supply recorded protein stability index for YNKATRRKALKNPSEEYGKILEVV [I3K] here.
2.98

Identify measured protein stability index associated with YNIATRRKALKNPSEPYGKILEVV [E16P]
2.17

Assign protein stability index to the following record: YNIADRRKALKNPSEEYGKILEVV [T5D]
3.06

Please indicate protein stability index recorded for YNIATRRKALKNPSREYGKILEVV [E15R]
2.46

Indicate its recorded protein stability index; the variant in question is YNIATRRKALKNMSEEYGKILEVV [P13M]
2.27

Specify protein stability index for YNIATRHKALKNPSEEYGKILEVV [R7H] and stop.
2.69

Assign protein stability index to the following record: YNIATRRKALKNPSEEYGKILEVQ [V24Q]
3.52

Note protein stability index for the variant shown: YNIATRRKALKNPSEEYGKILEDV [V23D]
3.65

# return recorded protein stability index for entry YNIATRRKALKPPSEEYGKILEVV [N12P]
3.11

State, in one line, measured protein stability index of YNIRTRRKALKNPSEEYGKILEVV [A4R]
2.97

Supply reported protein stability index belonging to this variant: YNIATRRKALKNCSEEYGKILEVV [P13C]
3.26

Give a short answer stating reported protein stability index for YNIATRRKALKNPSEEYGKILEVN [V24N] .
3.64

Identify the reported protein stability index for the following entry. YNIATRRKALKNNSEEYGKILEVV [P13N]
2.99

// fetch protein stability index given entry YNIATRRRALKNPSEEYGKILEVV [K8R]
2.85

Specify measured protein stability index for YNIATRRKALKNPSEEYGKILGVV [E22G] .
2.42

Give the reported protein stability index for this variant. YNIATRRKALKNPSEEYGKCLEVV [I20C]
3.89

Supply protein stability index value. Item: YNIATRRKALINPSEEYGKILEVV [K11I]
2.04

Please list protein stability index recorded for the variant YNIATRRKALKNPSEEYGKILEQV [V23Q]
3.34

Answer with the recorded protein stability index of YNIATRRKALKNPSEEYGKILEEV [V23E] only.
4.21

Entry YNIATRRKALKNPSELYGKILEVV [E16L] needs its protein stability index filled in; supply it.
1.99

The reported numbers originate from the supplement of paper PMC10567573.
